The reported numbers originate from ChEMBL document CHEMBL1124096.

Species on record: Mus musculus
Test: Phase II effective dose against mice for maximal electroshock seizure test (MES) for 0.25 hr of test time
Format: functional

[
  {
    "molecule": "O=C1Nc2ccccc2C12OCCO2",
    "ED50 [mg/kg]": 69.8
  },
  {
    "molecule": "O=C1Nc2ccccc2C12SCCS2",
    "ED50 [mg/kg]": 174
  },
  {
    "molecule": "O=C1Nc2cc(Cl)ccc2C12OCCO2",
    "ED50 [mg/kg]": 72
  },
  {
    "molecule": "O=C1Nc2cccc(Cl)c2C12OCCO2",
    "ED50 [mg/kg]": 95.6
  },
  {
    "molecule": "O=C1N(CN2CCOCC2)c2ccccc2C12OCCO2",
    "ED50 [mg/kg]": 90
  },
  {
    "molecule": "COC1(OC)C(=O)Nc2ccccc21",
    "ED50 [mg/kg]": 82
  },
  {
    "molecule": "O=C1Nc2ccccc2C12OCCS2 (stereo unspecified)",
    "ED50 [mg/kg]": 60.4
  },
  {
    "molecule": "O=C1Nc2ccccc2C12OCCCO2",
    "ED50 [mg/kg]": 110
  },
  {
    "molecule": "O=C1Nc2ccc(Br)cc2C12OCCO2",
    "ED50 [mg/kg]": 46.1
  },
  {
    "molecule": "O=C1Nc2ccc(Cl)cc2C12OCCO2",
    "ED50 [mg/kg]": 28
  },
  {
    "molecule": "CN1C(=O)C2(OCCO2)c2ccccc21",
    "ED50 [mg/kg]": 90.9
  }
]

----------
Assay: Phase II effective dose against mice for toxicity test (TOX) for 0.25 hr of test time
Format: organism-based
Settings: mouse, in vivo
// NB: equality with 100 mg/kg counts as not satisfied; only TD50 at 0.25 h strictly below is satisfied

[
  {
    "structureSmiles": "CN1C(=O)C2(OCCO2)c2ccccc21",
    "qualitativeLabel": "not satisfied"
  },
  {
    "structureSmiles": "O=C1Nc2ccc(Br)cc2C12OCCO2",
    "qualitativeLabel": "satisfied"
  },
  {
    "structureSmiles": "O=C1N(CN2CCOCC2)c2ccccc2C12OCCO2",
    "qualitativeLabel": "not satisfied"
  },
  {
    "structureSmiles": "O=C1Nc2ccc(Cl)cc2C12OCCO2",
    "qualitativeLabel": "satisfied"
  },
  {
    "structureSmiles": "O=C1Nc2ccccc2C12OCCO2",
    "qualitativeLabel": "not satisfied"
  },
  {
    "structureSmiles": "O=C1Nc2cccc(Cl)c2C12OCCO2",
    "qualitativeLabel": "not satisfied"
  },
  {
    "structureSmiles": "O=C1Nc2cc(Cl)ccc2C12OCCO2",
    "qualitativeLabel": "not satisfied"
  },
  {
    "structureSmiles": "O=C1N(CN2CCCCC2)c2ccccc2C12OCCO2",
    "qualitativeLabel": "not satisfied"
  },
  {
    "structureSmiles": "COC1(OC)C(=O)Nc2ccccc21",
    "qualitativeLabel": "not satisfied"
  }
]
